System name: T1, human CD22, endogenous on Raji cells (human, UniProt P20273 20-847)
T1 construct: whole, on cells; Endogenous protein of the Raji cell line
T1 sequence (looked up): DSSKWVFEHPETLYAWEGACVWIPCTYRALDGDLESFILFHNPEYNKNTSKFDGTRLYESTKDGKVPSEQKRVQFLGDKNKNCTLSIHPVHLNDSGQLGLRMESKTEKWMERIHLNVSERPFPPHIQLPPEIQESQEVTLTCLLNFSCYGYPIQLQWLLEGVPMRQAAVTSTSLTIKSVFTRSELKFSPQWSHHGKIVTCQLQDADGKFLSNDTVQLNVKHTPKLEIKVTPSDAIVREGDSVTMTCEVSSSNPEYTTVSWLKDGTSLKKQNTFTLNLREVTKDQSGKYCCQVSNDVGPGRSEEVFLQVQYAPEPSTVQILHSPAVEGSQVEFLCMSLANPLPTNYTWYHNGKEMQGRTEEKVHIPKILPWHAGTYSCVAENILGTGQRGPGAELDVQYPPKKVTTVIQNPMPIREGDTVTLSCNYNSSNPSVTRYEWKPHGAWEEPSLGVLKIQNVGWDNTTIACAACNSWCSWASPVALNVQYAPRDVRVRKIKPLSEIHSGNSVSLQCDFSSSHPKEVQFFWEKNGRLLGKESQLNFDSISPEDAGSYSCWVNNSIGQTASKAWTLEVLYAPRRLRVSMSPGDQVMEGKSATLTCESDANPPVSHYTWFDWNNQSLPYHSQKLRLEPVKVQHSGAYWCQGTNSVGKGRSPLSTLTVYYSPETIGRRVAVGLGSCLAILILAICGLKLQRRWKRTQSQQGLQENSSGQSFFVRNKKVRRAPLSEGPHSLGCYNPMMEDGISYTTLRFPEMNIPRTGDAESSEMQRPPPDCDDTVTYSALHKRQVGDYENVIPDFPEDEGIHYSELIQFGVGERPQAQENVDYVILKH
Test name: FACS, Raji cells
Method: The required cells were scale-up cultured in a T-75 cell culture flask to the logarithmic growth phase. For the adherent cell CHO-K1, the medium was aspirated, the cells were washed 2 times with PBS buffer, and then digested with trypsin. After the digestion was terminated, the cells were washed 2 times with PBS buffer. […] Data analysis was performed by software (CellQuest) to obtain the mean fluorescence density (MFI)of the cells. […]
The following binders are listed with their measured EC50 values.
Measured parameter: EC50 (nM)

# Binder, Recorded value
measured = [
    ("F1.105.11 human-murine chimeric antibody (antibody, human IgG1, kappa, V domains shown, Chimeric, human IgG1 / kappa; VL tied by name) VH: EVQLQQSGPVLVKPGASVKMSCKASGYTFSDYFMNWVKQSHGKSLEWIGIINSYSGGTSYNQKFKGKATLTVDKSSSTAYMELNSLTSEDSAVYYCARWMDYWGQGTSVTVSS VL: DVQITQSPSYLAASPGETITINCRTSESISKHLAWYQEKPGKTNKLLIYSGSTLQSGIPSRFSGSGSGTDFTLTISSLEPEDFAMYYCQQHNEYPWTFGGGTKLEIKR", 1.39),
    ("F1.7.6 human-murine chimeric antibody (antibody, human IgG1, kappa, V domains shown, Chimeric, human IgG1 / kappa; VL tied by name) VH: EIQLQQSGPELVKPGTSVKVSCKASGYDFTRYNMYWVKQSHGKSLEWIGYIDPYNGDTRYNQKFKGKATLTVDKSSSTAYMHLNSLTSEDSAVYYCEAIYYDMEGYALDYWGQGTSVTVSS VL: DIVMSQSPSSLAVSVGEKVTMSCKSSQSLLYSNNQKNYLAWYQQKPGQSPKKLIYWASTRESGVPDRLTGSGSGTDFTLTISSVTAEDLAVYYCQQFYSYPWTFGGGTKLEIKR", 0.23),
    ("F1.250.16 human-murine chimeric antibody (antibody, human IgG1, kappa, V domains shown, Chimeric, human IgG1 / kappa; VL tied by name) VH: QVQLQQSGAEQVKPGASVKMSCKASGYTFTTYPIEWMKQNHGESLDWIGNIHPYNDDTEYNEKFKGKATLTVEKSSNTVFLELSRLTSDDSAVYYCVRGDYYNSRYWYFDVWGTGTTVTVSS VL: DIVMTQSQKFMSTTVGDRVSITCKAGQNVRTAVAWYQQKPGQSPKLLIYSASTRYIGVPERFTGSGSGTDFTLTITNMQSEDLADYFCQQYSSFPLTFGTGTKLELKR", 0.16),
]
